ASSAY_PROTOCOL: Metabolic stability in human hepatocytes assessed as unbound intrinsic clearance measured per 10^6 viable cells/ml at 1 uM measured upto 120 mins by LC-MS/MS analysis
Type: ADME, cell-based, Hepatocyte
STATED_CONDITIONS: 2 h
ASSAY_METRIC: CL free

| INPUT_SMILES | ASSAY_METRIC | REPORTED_RESULT |
| --- | --- | --- |
| COc1cc(Cl)c(O[C@H]2CC[C@@](C)(C(=O)O)CC2)cc1C(=O)N[C@@H]1[C@H]2CC[C@H](C2)[C@@H]1C(=O)NCC1(C)CCC1 | CL free | 14 µL/min |
| COc1cc(C#N)c(O[C@H]2CC[C@@](C)(C(=O)O)CC2)cc1C(=O)N[C@@H]1[C@H]2CC[C@H](C2)[C@@H]1C(=O)NCC(C)(C)C | CL free | < 2 µL/min |
| COc1cc(F)c(O[C@H]2CC[C@@](C)(C(=O)O)CC2)cc1C(=O)N[C@@H]1[C@H]2CC[C@H](C2)[C@@H]1C(=O)NCC(C)(C)C | CL free | 4.3 µL/min |
| COc1cc(F)c(O[C@H]2CC[C@@H](C(=O)O)CC2)cc1C(=O)N[C@@H]1[C@H]2CC[C@H](C2)[C@@H]1C(=O)NCC(C)(C)C | CL free | 3.4 µL/min |
| COc1cc(F)c(O[C@H]2CC[C@@](C)(C(=O)O)CC2)cc1C(=O)N[C@@H]1[C@H]2CC[C@H](C2)[C@@H]1C(=O)NCC(C)C | CL free | < 1.4 µL/min |
| CC(C)Oc1ccccc1C(=O)Nc1ccccc1C(=O)Nc1cccc(S(=O)(=O)C(F)(F)F)c1 | CL free | 3.07 10^3uL/min |
| COc1cc(F)c(O[C@H]2CC[C@@](C)(C(=O)O)CC2)cc1C(=O)N[C@@H]1[C@H]2CC[C@H](C2)[C@@H]1C(=O)Nc1ccc(F)c(S(F)(F)(F)(F)F)c1 | CL free | 2.1 10^3uL/min |
| COc1cc(F)c(O[C@H]2CC[C@@](C)(C(=O)O)CC2)cc1C(=O)N[C@@H]1[C@H]2CC[C@H](C2)[C@@H]1C(=O)N[C@H](C)C(C)(C)C | CL free | 11 µL/min |
| COc1cc(F)c(O[C@H]2CC[C@@](CO)(C(=O)O)CC2)cc1C(=O)N[C@@H]1[C@H]2CC[C@H](C2)[C@@H]1C(=O)NCC1(C)CCC1 | CL free | 11 µL/min |
| CC1(CNC(=O)[C@H]2[C@@H]3CC[C@@H](C3)[C@H]2NC(=O)c2cc(O[C@H]3CC[C@@](C)(C(=O)O)CC3)c(F)cc2OCF)CCC1 | CL free | 15 µL/min |
| COc1cc(C#N)c(O[C@H]2CC[C@@](C)(C(=O)O)CC2)cc1C(=O)N[C@@H]1[C@H]2CC[C@H](C2)[C@@H]1C(=O)NCC1(C)CCC1 | CL free | 10 µL/min |
| COc1cc(F)c(O[C@H]2CC[C@@](C)(c3n[nH]c(=O)o3)CC2)cc1C(=O)N[C@@H]1[C@H]2CC[C@H](C2)[C@@H]1C(=O)NCC1(C)CCC1 | CL free | 562 µL/min |
| COc1cc(C(F)F)c(O[C@H]2CC[C@@](C)(C(=O)O)CC2)cc1C(=O)N[C@@H]1[C@H]2CC[C@H](C2)[C@@H]1C(=O)NCC1(C)CCC1 | CL free | 11 µL/min |
| COc1cc(F)c(O[C@H]2CC[C@@](CC#N)(C(=O)O)CC2)cc1C(=O)N[C@@H]1[C@H]2CC[C@H](C2)[C@@H]1C(=O)NCC1(C)CCC1 | CL free | 15 µL/min |
| COc1cc(Cl)c(O[C@H]2CC[C@@](C)(C(=O)O)CC2)cc1C(=O)N[C@@H]1[C@@H]2CC[C@@H](C2)[C@@H]1C(=O)NCC1(C)CCC1 | CL free | 153 µL/min |
| COc1c(Cl)cc(O[C@H]2CC[C@@](C)(C(=O)O)CC2)cc1C(=O)N[C@@H]1[C@H]2CC[C@H](C2)[C@@H]1C(=O)NCC1(C)CCC1 | CL free | 31 µL/min |
| CC1(CNC(=O)[C@H]2[C@@H]3CC[C@@H](C3)[C@H]2NC(=O)c2ccc(F)c(O[C@H]3CC[C@@](C)(C(=O)O)CC3)c2)CCC1 | CL free | 16 µL/min |
| CC1(CNC(=O)[C@H]2[C@@H]3CC[C@@H](C3)[C@H]2NC(=O)c2cc(O[C@H]3CC[C@@](C)(C(=O)O)CC3)cc3c2OCC3)CCC1 | CL free | 5.1 µL/min |
